So I've got a bunch of compounds here, and I need their SETFA PRE values.
System: Setaria faberi (SETFA)
Measurement notes: Glasshouse herbicide test, pre- and post-emergence, percentage damage
Type: in vivo
Run conditions: pre-emergence, 250 g/h, evaluated after 13 days, percentage damage on five point scale

// query Give recorded SETFA PRE. `COc1cc(-c2ccc(F)cc2)cc(C)c1C1C(=O)CC2(CCN(OC)CC2)CC1=O`
// result 5 (5=80-100%)

// query Give recorded SETFA PRE. `COc1cc(-c2ccc(C#N)cn2)cc(OC)c1C1C(=O)CC2(CCN(C(C)=O)CC2)CC1=O`
// result 4 (4=60-79%)

// query Give recorded SETFA PRE. CC(=O)OC1=C(c2c(C)cc(-c3ccc(F)cc3)cc2C)C(=O)CC2(CCN(C(C)=O)CC2)C1 [Compound P1]
// result 5 (5=80-100%)

// query Give recorded SETFA PRE. `COc1cc(-c2ncc(F)cn2)cc(C)c1C1C(=O)CC2(CCN(OC)CC2)CC1=O`
// result 5 (5=80-100%)

// query Give recorded SETFA PRE. COc1cc(-c2ccc(F)cc2)cc(C)c1C1C(=O)CC2(CCN(C(=O)C(C)O)CC2)CC1=O (stereo not drawn)
// result 5 (5=80-100%)

// query Give recorded SETFA PRE. `COCC(=O)N1CCC2(CC1)CC(=O)C(c1c(C)cc(-c3ccc(F)cc3)cc1C)C(=O)C2`
// result 5 (5=80-100%)

// query Give recorded SETFA PRE. `CCS(=O)(=O)N1CCC2(CC1)CC(=O)C(c1c(C)cc(-c3ncc(F)cn3)cc1C)C(=O)C2`
// result 5 (5=80-100%)

// query Give recorded SETFA PRE. `Cc1cc(-c2ccc(F)cc2)cc(C)c1C1C(=O)CC2(CCN(C(=O)NC(=O)c3ccccn3)CC2)CC1=O`
// result 3 (3=40-59%)

// query Give recorded SETFA PRE. `COCC(=O)N1CCC2(CC1)CC(=O)C(c1c(C)cc(-c3ncc(F)cn3)cc1C)C(=O)C2`
// result 5 (5=80-100%)

// query Give recorded SETFA PRE. `CON1CCC2(CC1)CC(=O)C(c1c(C)cc(-c3ccc(C#N)cn3)cc1C)C(=O)C2`
// result 5 (5=80-100%)

// query Give recorded SETFA PRE. `COc1cc(-c2ccc(F)cc2)cc(OC)c1C1C(=O)CC2(CCN(C(C)=O)CC2)CC1=O`
// result 5 (5=80-100%)

// query Give recorded SETFA PRE. `CC(=O)N1CCC2(CC1)CC(=O)C(c1c(C)cc(-n3cc(F)cn3)cc1C)C(=O)C2`
// result 4 (4=60-79%)

// query Give recorded SETFA PRE. `CC(=O)N1CCC2(CC1)CC(=O)C(c1c(C)cc(-c3ccc(Cl)cc3)cc1C)C(=O)C2`
// result 5 (5=80-100%)

// query Give recorded SETFA PRE. `Cc1cc(-c2ccc(F)cc2)cc(C)c1C1C(=O)CC2(CCN(C(=O)C(C)(C)C)CC2)CC1=O`
// result 5 (5=80-100%)

// query Give recorded SETFA PRE. `CC(=O)N1CCC2(CC1)CC(=O)C(c1c(C)cc(-c3ncc(Cl)cc3F)cc1C)C(=O)C2`
// result 5 (5=80-100%)

###

So I've got a bunch of compounds here, and I need their SETFA PRE values.
Test system: Setaria faberi (SETFA)
Measurement notes: Glasshouse herbicide test, pre- and post-emergence, percentage damage
Format: in vivo
Run conditions: pre-emergence, 250 g/h, evaluated after 13 days, percentage damage on five point scale
Experimental: Seeds of a variety of test species are sown in standard soil in pots (Lolium perenne (LOLPE), Setaria faberi (SETFA), Alopecurus myosuroides (ALOMY), Echinochloa crus-galli (ECHCG), Avena fatua (AVEFA)). […] After 13 days for pre and post-emergence, the test is evaluated for the percentage damage caused to the plant. […]

// query Give recorded SETFA PRE. Cc1cc(-c2ccc(F)cc2)cc(C)c1C1C(=O)CC2(CCN(C(=O)C3CC3)CC2)CC1=O [Compound A59]
// result 5 (5=80-100%)

// query Give recorded SETFA PRE. COc1cc(-c2ccc(C#N)cn2)cc(C)c1C1C(=O)CC2(CCN(C(C)=O)CC2)CC1=O [Compound A18]
// result 5 (5=80-100%)

// query Give recorded SETFA PRE. CC(=O)N1CCC2(CC1)CC(=O)C(c1c(C)cc(-c3ccc(F)cc3)cc1C)C(=O)C2 [Compound A12]
// result 5 (5=80-100%)

// query Give recorded SETFA PRE. CC(=O)N1CCC2(CC1)CC(=O)C(c1c(C)cc(-c3ccc(Cl)cn3)cc1C)C(=O)C2 [Compound A45]
// result 5 (5=80-100%)

// query Give recorded SETFA PRE. COc1cc(-c2ncc(F)cn2)cc(OC)c1C1C(=O)CC2(CCN(C(C)=O)CC2)CC1=O [Compound A15]
// result 5 (5=80-100%)

// query Give recorded SETFA PRE. Cc1cc(-c2ccc(F)cc2)cc(C)c1C1C(=O)CC2(CCN(C(=O)NC(=O)C(C)(C)C)CC2)CC1=O [Compound A58]
// result 5 (5=80-100%)

// query Give recorded SETFA PRE. CC(=O)N1CCC2(CC1)CC(=O)C(c1c(C)cc(-c3ccc(C#N)cn3)cc1C)C(=O)C2 [Compound A14]
// result 5 (5=80-100%)

// query Give recorded SETFA PRE. CC(=O)N1CCC2(CC1)CC(=O)C(c1c(C)cc(-c3ncc(Cl)cn3)cc1C)C(=O)C2 [Compound A51]
// result 5 (5=80-100%)

// query Give recorded SETFA PRE. CON1CCC2(CC1)CC(=O)C(c1c(C)cc(-c3ccc(F)cc3)cc1C)C(=O)C2 [Compound A6]
// result 5 (5=80-100%)

// query Give recorded SETFA PRE. COCC(=O)N1CCC2(CC1)CC(=O)C(c1c(C)cc(-c3ccc(F)cc3)cc1OC)C(=O)C2 [Compound A67]
// result 5 (5=80-100%)

// query Give recorded SETFA PRE. Cc1cc(-c2ncc(F)cn2)cc(C)c1C1C(=O)CC2(CCN(C(=O)C3CC3)CC2)CC1=O [Compound A38]
// result 5 (5=80-100%)

// query Give recorded SETFA PRE. Cc1cc(-c2ncc(F)cn2)cc(C)c1C1C(=O)CC2(CCN(C(=O)c3ccccn3)CC2)CC1=O [Compound A34]
// result 5 (5=80-100%)

// query Give recorded SETFA PRE. Cc1cc(-c2ccc(F)cc2)cc(C)c1C1C(=O)CC2(CCN(C(=O)NC(C)(C)C)CC2)CC1=O [Compound A57]
// result 5 (5=80-100%)

// query Give recorded SETFA PRE. Cc1cc(-c2ccc(C#N)cn2)cc(C)c1C1C(=O)CC2(CCN(C(=O)C3CC3)CC2)CC1=O [Compound A28]
// result 5 (5=80-100%)

// query Give recorded SETFA PRE. COc1cc(-c2ccc(F)cc2)cc(C)c1C1C(=O)CC2(CCN(C(=O)C3CC3)CC2)CC1=O [Compound A70]
// result 5 (5=80-100%)

// query Give recorded SETFA PRE. Cc1cc(-c2ncc(F)cn2)cc(C)c1C1C(=O)CC2(CCN(C(=O)c3ccccc3)CC2)CC1=O [Compound A33]
// result 5 (5=80-100%)

// query Give recorded SETFA PRE. Cc1cc(-c2ccc(F)cc2)cc(C)c1C1C(=O)CC2(CCN(C(=O)c3ccccn3)CC2)CC1=O [Compound A55]
// result 5 (5=80-100%)

// query Give recorded SETFA PRE. CC(=O)N1CCC2(CC1)CC(=O)C(c1c(C)cc(-n3cc(Cl)cn3)cc1C)C(=O)C2 [Compound A19]
// result 3 (3=40-59%)

// query Give recorded SETFA PRE. COc1cc(-c2ncc(F)cn2)cc(C)c1C1C(=O)CC2(CCN(C(C)=O)CC2)CC1=O [Compound A17]
// result 5 (5=80-100%)

// query Give recorded SETFA PRE. CON1CCC2(CC1)CC(=O)C(c1c(C)cc(-c3ncc(F)cn3)cc1C)C(=O)C2 [Compound A2]
// result 5 (5=80-100%)

// query Give recorded SETFA PRE. Cc1cc(-c2ccc(C#N)cn2)cc(C)c1C1C(=O)CC2(CCN(C(=O)NC(=O)C(C)(C)C)CC2)CC1=O [Compound A27]
// result 5 (5=80-100%)

// query Give recorded SETFA PRE. Cc1cc(-c2ncc(F)cn2)cc(C)c1C1C(=O)CC2(CCN(C(=O)NC(=O)c3ccccn3)CC2)CC1=O [Compound A41]
// result 5 (5=80-100%)

// query Give recorded SETFA PRE. COc1cc(-c2ccc(F)cc2)cc(C)c1C1C(=O)CC2(CCN(C(C)=O)CC2)CC1=O [Compound A21]
// result 5 (5=80-100%)

// query Give recorded SETFA PRE. CON1CCC2(CC1)CC(=O)C(c1c(C)cc(-c3ncc(Cl)cn3)cc1C)C(=O)C2 [Compound A1]
// result 5 (5=80-100%)

// query Give recorded SETFA PRE. Cc1cc(-c2ncc(F)cn2)cc(C)c1C1C(=O)CC2(CCN(C(=O)NC(=O)C(C)(C)C)CC2)CC1=O [Compound A37]
// result 5 (5=80-100%)

// query Give recorded SETFA PRE. Cc1cc(-c2ccc(C#N)cn2)cc(C)c1C1C(=O)CC2(CCN(C(=O)c3ccccc3)CC2)CC1=O [Compound A23]
// result 5 (5=80-100%)

// query Give recorded SETFA PRE. CC(=O)N1CCC2(CC1)CC(=O)C(c1c(C)cc(C)cc1C)C(=O)C2 [Compound A42]
// result 5 (5=80-100%)

// query Give recorded SETFA PRE. Cc1cc(-c2ccc(C#N)cn2)cc(C)c1C1C(=O)CC2(CCN(C(=O)NC(C)(C)C)CC2)CC1=O [Compound A26]
// result 5 (5=80-100%)

// query Give recorded SETFA PRE. CC(=O)N1CCC2(CC1)CC(=O)C(c1c(C)cc(-c3ccc(F)cn3)cc1C)C(=O)C2 [Compound A46]
// result 5 (5=80-100%)

// query Give recorded SETFA PRE. Cc1cc(-c2ccc(F)cc2)cc(C)c1C1C(=O)CC2(CCN(C(=O)OC(C)(C)C)CC2)CC1=O [Compound A11]
// result 5 (5=80-100%)

Cited source: patent US11980188B2
